Just for reference, patent US9663508B2 is where these values come from.

# system: human Nav1.7 (Homo sapiens (Human))
# Sequence (Q15858 whole entry): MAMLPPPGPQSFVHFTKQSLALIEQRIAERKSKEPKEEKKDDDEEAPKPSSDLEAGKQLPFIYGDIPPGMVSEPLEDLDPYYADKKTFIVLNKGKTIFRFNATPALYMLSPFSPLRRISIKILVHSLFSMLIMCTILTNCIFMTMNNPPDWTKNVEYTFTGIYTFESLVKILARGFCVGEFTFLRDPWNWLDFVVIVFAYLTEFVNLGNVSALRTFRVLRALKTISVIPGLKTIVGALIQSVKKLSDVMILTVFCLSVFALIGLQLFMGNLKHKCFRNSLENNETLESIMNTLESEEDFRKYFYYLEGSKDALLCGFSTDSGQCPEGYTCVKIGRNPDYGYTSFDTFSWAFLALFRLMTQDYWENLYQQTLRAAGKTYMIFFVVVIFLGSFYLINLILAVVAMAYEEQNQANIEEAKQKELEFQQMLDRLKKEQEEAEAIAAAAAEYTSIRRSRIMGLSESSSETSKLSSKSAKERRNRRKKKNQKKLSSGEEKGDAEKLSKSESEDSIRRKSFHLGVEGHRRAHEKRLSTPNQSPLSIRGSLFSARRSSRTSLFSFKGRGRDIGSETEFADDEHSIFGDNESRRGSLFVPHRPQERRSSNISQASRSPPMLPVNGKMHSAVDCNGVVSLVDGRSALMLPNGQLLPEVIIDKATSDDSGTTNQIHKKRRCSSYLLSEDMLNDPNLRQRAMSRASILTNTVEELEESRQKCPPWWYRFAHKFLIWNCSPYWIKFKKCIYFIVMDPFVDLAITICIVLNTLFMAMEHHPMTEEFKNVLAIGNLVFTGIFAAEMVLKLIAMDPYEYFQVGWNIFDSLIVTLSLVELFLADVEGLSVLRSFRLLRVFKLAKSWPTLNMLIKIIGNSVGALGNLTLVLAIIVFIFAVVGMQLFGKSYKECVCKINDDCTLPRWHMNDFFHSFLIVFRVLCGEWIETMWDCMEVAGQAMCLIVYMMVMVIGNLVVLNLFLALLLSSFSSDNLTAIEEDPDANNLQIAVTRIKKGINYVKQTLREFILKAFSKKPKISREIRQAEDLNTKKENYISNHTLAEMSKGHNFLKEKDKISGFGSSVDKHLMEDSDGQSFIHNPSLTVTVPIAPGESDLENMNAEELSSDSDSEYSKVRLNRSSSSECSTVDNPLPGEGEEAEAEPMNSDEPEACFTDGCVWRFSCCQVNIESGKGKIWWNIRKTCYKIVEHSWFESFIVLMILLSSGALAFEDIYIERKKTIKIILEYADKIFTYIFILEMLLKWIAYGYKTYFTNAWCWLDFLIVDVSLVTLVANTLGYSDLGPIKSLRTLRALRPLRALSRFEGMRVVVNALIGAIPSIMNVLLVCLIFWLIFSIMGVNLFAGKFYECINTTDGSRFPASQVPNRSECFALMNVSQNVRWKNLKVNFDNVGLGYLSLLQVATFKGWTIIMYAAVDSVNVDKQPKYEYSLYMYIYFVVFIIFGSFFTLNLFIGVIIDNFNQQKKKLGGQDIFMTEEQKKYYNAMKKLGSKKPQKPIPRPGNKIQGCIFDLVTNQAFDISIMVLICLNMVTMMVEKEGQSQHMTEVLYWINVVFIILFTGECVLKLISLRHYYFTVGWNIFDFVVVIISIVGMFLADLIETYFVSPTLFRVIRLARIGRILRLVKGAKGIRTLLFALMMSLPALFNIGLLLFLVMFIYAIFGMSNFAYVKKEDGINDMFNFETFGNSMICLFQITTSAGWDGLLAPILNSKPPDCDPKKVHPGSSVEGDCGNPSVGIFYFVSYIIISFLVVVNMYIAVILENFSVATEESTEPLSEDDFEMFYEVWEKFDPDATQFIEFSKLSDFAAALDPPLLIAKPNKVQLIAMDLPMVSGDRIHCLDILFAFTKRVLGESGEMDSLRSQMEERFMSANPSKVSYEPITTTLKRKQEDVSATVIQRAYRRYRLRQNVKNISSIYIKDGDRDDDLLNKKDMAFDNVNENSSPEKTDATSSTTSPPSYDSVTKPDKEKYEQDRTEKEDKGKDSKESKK
# experimental-details: Nav 1.7 in vitro PatchXpress (PX) assay
# Assay type: cell-based
# experimental-conditions: in-vitro Nav 1.7 PX data
property-measured: IC50 (nM)

- CS(=O)(=O)NC(=O)c1cc(OC(F)F)c(-c2cnc(OCc3ccc(Cl)cc3)c(Cl)c2)cc1F: 55.6
- COc1cc(C(=O)NS(C)(=O)=O)c(F)cc1-c1cnc(Oc2cc3ccccc3cc2Cl)c(Cl)c1: 98.8
- Cc1cc(C(=O)NS(C)(=O)=O)c(F)cc1-c1cnc(O[C@@H](C)c2nc3ccccc3s2)c(Cl)c1: 87.3
- Cc1cc(C(=O)NS(C)(=O)=O)c(F)cc1-c1cnc(Oc2cc(Cl)cc(Cl)c2)c(C(F)(F)F)c1: 169
- COc1cc(C(=O)NS(C)(=O)=O)c(F)cc1-c1cnc(O[C@H](C)C2CCC2)c(Cl)c1 (single isomer, unassigned): 50
- CS(=O)(=O)NC(=O)c1cc(OC(F)F)c(-c2cnc(Oc3cc(Cl)cc(Cl)c3)c(Cl)c2)cc1F: 14
- CC[C@@H](Oc1ncc(-c2cc(F)c(C(=O)NS(C)(=O)=O)cc2OC)cc1Cl)C(F)(F)F [Example 732]: 104
- Cc1cc(C(=O)NS(=O)(=O)c2nccs2)c(F)cc1-c1cnc(OC2CCC2)c(Cl)c1: 57.1
- COc1cc(C(=O)NS(C)(=O)=O)c(F)cc1-c1cnc(Oc2ccc(Cl)cc2F)c(Cl)c1: 36.9
- COc1cc(C(=O)NS(C)(=O)=O)c(F)cc1-c1cnc(O[C@@H](C)C2CCC2)c(Cl)c1 (single isomer, unassigned): 77.6

I. COc1cc(C(=O)NS(C)(=O)=O)c(F)cc1-c1cnc(NC2CCC(C)(C)CC2)c(Cl)c1
II. CCS(=O)(=O)NC(=O)c1ccc(-c2cnc(Oc3c(C)cc(Cl)cc3Cl)c(Cl)c2)c(OC)c1
III. COc1cc(C(=O)NS(C)(=O)=O)c(F)cc1-c1cnc(Oc2c(F)ccc(Cl)c2F)c(Cl)c1
Query :: Falling order of IC50, please. Reply format: the labels, ordered as requested.
Result :: I, III, II
(I: 106 nM, III: 67.8 nM, II: 24.8 nM)
